Test: Plasma concentration (pharmacokinetics) after single oral dose in humans
Format: in vivo, human
Details: male, human, plasma; 10 mg single oral dose
readoutType: Cmax (ng/mL)
Supply the numeric figure in ng/mL, leaving out any unit text.

O=C(O)c1nc2ccccc2n([C@H]2C[C@H]3CCC[C@@H](C2)N3C2CC3CCCC(C3)C2)c1=O (stereo partly shown) yielded Cmax of 77

----------
Known fraction unbound at 24 h, 2 μg/mL of a selection of molecules
Assay: Free unbound compound fraction, equilibrium dialysis of rat serum
Type: in vitro ADME
Conditions: male, Crl:CD (SD), rat, rat serum; 2 μg/mL, 24 hours dialysis at 37° C.

So for CNC(=O)Cn1c(=O)n(C2CCN([C@@H]3Cc4cccc5cccc3c45)CC2)c2ccccc21 , the logged fraction unbound at 24 h, 2 μg/mL turned out to be < 0.001

Moving on to another molecule below.
Reported fraction unbound at 24 h, 2 μg/mL of O=C(O)c1nc2ccccc2n([C@H]2C[C@H]3CCC[C@@H](C2)N3C2CC3CCCC(C3)C2)c1=O (some centres unmarked) : 0.65 to 0.7

----------
Assay: Plasma concentration (pharmacokinetics) after single oral dose in humans
Format: in vivo, human
Settings: male, human, plasma, po, 30 mg, 30 mg single oral dose; read-out: tmax Mean
readoutType: Tmax (h)
Lab book: enter the figure in h, no units written.

// recorded Tmax for O=C(O)c1nc2ccccc2n([C@H]2C[C@H]3CCC[C@@H](C2)N3C2CC3CCCC(C3)C2)c1=O (stereo partly shown) : 1.8

----------
Experiment: In vivo renal clearance in humans
Parameters: species or system human
Conditions: male, human, urine; 30 mg single oral dose
readoutType: CL renal (mL/min)
Hi! Could you send only the number? It should be in mL/min, unit omitted.

// CL renal value for O=C(O)c1nc2ccccc2n([C@H]2C[C@H]3CCC[C@@H](C2)N3C2CC3CCCC(C3)C2)c1=O (stereo partly shown) : 270

----------
Assay: Plasma concentration (pharmacokinetics) after single oral dose in humans
Assay type: in vivo, human
Conditions: male, human, plasma; 3 mg single oral dose; read-out: AUCinf Mean
Method: The plasma concentration of Compound (1D) was evaluated in humans for up to 36 hours after administration of a single oral dose of 3, 10, or 30 mg of Compound (1D) in the form of a methyl cellulose suspension. Four healthy male subjects were administered each dose. FIG. 19A provides a plot of the human plasma concentration of Compound (1D) on a linear scale versus linear time in hours at each dose: 3, 10, and 30 mg. […]
readoutType: AUC(0-inf)
Number first, unit second.

O=C(O)c1nc2ccccc2n([C@H]2C[C@H]3CCC[C@@H](C2)N3C2CC3CCCC(C3)C2)c1=O (stereo partly shown) yielded AUC(0-inf) of 161 ng·h/mL

----------
Test: Plasma concentration (pharmacokinetics) after single oral dose in humans
Format: in vivo, human
Conditions: male, human, plasma; 10 mg single oral dose
readoutType: AUC(0-t) (ng·h/mL)
Note: unit ng·h/mL is implicit; provide only the numeric part.

Item: O=C(O)c1nc2ccccc2n([C@H]2C[C@H]3CCC[C@@H](C2)N3C2CC3CCCC(C3)C2)c1=O (stereo partly shown) [Compound (1D)] | AUC(0-t): 438

----------
Test: Aqueous solubility at pH about 6.8
Assay type: physicochemical
Conditions: 25 °C, pH 6.8, aqueous buffer, kinetic from dmso stock, single value, procedure not stated; read-out: Solubility at pH 6.8
readoutType: solubility at 16 h (µM)
Enter your answer as a number in µM; do not include the unit.

Please fill in: solubility at 16 h reported for CNC(=O)Cn1c(=O)n(C2CCN([C@@H]3Cc4cccc5cccc3c45)CC2)c2ccccc21 [Compound W-212393] = 42

----------
Test: Plasma concentration (pharmacokinetics) after single oral dose in humans
Format: in vivo, human
Details: male, human, plasma, po, 30 mg, 3, 10 and 30 mg single oral doses; read-out: tmax, minimum to maximum across the three doses
readoutType: Tmax

Quick note, Tmax for O=C(O)c1nc2ccccc2n([C@H]2C[C@H]3CCC[C@@H](C2)N3C2CC3CCCC(C3)C2)c1=O (stereo partly shown) landed at 1 to 3 h

----------
Experiment: In vivo renal clearance in humans
Parameters: species or system human
Conditions: male, human, urine; 10 mg single oral dose
readoutType: CL renal (mL/min)
Give your result in mL/min as a bare value.

# CL renal (molecule: O=C(O)c1nc2ccccc2n([C@H]2C[C@H]3CCC[C@@H](C2)N3C2CC3CCCC(C3)C2)c1=O (stereo partly shown) [Compound (1D)] ) is 266

----------
Assay: Rat protein binding, equilibrium dialysis of rat plasma
Type: in vitro ADME
Details: rat, rat plasma, 2 μg/mL, 24 hours dialysis at 37° C.
readoutType: fraction unbound at 24 h, 2 μg/mL
The answer should be a number; do not append a unit.

According to the records, this compound O=C(O)c1nc2ccccc2n([C@H]2C[C@H]3CCC[C@@H](C2)N3C2CC3CCCC(C3)C2)c1=O (some centres unmarked) displays fraction unbound at 24 h, 2 μg/mL of 0.491

----------
Assay: Plasma concentration (pharmacokinetics) after single oral dose in humans
Assay type: in vivo, human
Settings: male, human, plasma; 3 mg single oral dose
Procedure: The plasma concentration of Compound (1D) was evaluated in humans for up to 36 hours after administration of a single oral dose of 3, 10, or 30 mg of Compound (1D) in the form of a methyl cellulose suspension. Four healthy male subjects were administered each dose. FIG. 19A provides a plot of the human plasma concentration of Compound (1D) on a linear scale versus linear time in hours at each dose: 3, 10, and 30 mg. […]
readoutType: AUC(0-t) (ng·h/mL)
Record the value in ng·h/mL, omitting the unit from your answer.

The compound O=C(O)c1nc2ccccc2n([C@H]2C[C@H]3CCC[C@@H](C2)N3C2CC3CCCC(C3)C2)c1=O (stereo partly shown) [Compound (1D)] showed AUC(0-t) equal to 154

----------
Assay: Plasma concentration (pharmacokinetics) after single oral dose in humans
Type: in vivo, human
Details: male, human, plasma; 30 mg single oral dose
readoutType: AUC(0-t)
Report as: number unit

# compound O=C(O)c1nc2ccccc2n([C@H]2C[C@H]3CCC[C@@H](C2)N3C2CC3CCCC(C3)C2)c1=O (stereo partly shown) ; its AUC(0-t) = 0.505 µg·h/mL

----------
Test: In vivo bioavailability after oral dosing
Details: male, Sprague-Dawley [Crl:CD(SD)], rat, plasma; 1 mg/kg oral, non-fasted; mean of multiple determinations
readoutType: bioavailability (%)
Expressed in %, but write only the number.

// bioavailability value for CNC(=O)Cn1c(=O)n(C2CCN([C@@H]3Cc4cccc5cccc3c45)CC2)c2ccccc21 : 2.1

Let us move to another entry and its bioavailability.
Data point: C[C@@H]1C[C@@H]2C[C@H](C1)C[C@@H](N1[C@@H]3CCC[C@H]1C[C@@H](n1c(=O)c(C(=O)O)nc4ccccc41)C3)C2 [Compound 405K] ; bioavailability = 63.7

----------
Assay: in vivo
Conditions: male, Crl, CD(SD), rat, brain homogenate and plasma, iv, 0.5 mg/kg
readoutType: Kp at 0.5 h
Answer with a number only.

// Kp at 0.5 h value for CNC(=O)Cn1c(=O)n(C2CCN([C@@H]3Cc4cccc5cccc3c45)CC2)c2ccccc21 : 0.5

The reported measurements were obtained from patent US10974081B2.
